System: DMS-273
Method: NCI tumour cell line growth inhibition, 48 h
Calls of active or inactive are those of the source. Rule as the data show it: active = GI50 up to about 1.1 µM and inactive = higher.
Output constraint: value belongs to active, inactive

Use the examples below as a reference point.
O=C1C[C@@H]2[C@@H](CCC23CC3)N1	inactive
O=C(NCC(O)CNC(=O)C(F)(F)F)C(F)(F)F	inactive
NC(=O)NC12CC3CC(CC(F)(C3)C1)C2	inactive
Cc1ccccc1/C=N/C12CC3CC(CC(C3)C1)C2	inactive
O=C(NCCCCCCNC(=O)n1cc(F)c(=O)[nH]c1=O)NCCCOCCOCCOCCOCCOCCOCCOCCOCCOCCOCCOCCOCCOCCOCCOCCOCCOCCOCCOCCOCCOCCCNC(=O)C(O)C(O)C(O)C(O)CO (stereo not given)	inactive
S=c1sc2c(n1-c1ccccc1)N=CNC2S (stereo not given)	inactive

// outcome(item) with item = "C/C(=N\NC(=[Se])N(C)C)c1ccccn1"
active

// outcome(item) with item = "N#Cc1c(NN)nc(NN)c(C#N)c1-c1ccccc1"
inactive

// outcome(item) with item = "COc1ccc2ccc([Se]c3ccc4ccc(OC)cc4c3)cc2c1"
inactive

// outcome(item) with item = "CCc1cccc(C)c1NC(=O)CCc1nnc2s/c(=C\c3cccc4ccccc34)c(=O)n12"
inactive
